Cited source for all entries: ChEMBL document CHEMBL4308841

This listing pairs molecules with measured growth at 10 µM.
# Tested on: COLO 205
# experiment-description: Growth inhibition of human COLO205 cells assessed as cell growth at 10 uM incubated for 48 hrs by sulforhodamine B assay relative to control
# Format: functional
# assay-setup: COLO 205, 48 h, read-out: Activity
Report the figure in % without appending any unit label.

Worked examples follow.
[[record]]
entry_smiles = "COc1cc(Cl)cc(-c2nn(-c3cccc(NC(=O)Nc4cc(C(F)(F)F)cc(C(F)(F)F)c4)c3)cc2-c2ccncc2)c1"
measure = "growth at 10 µM"
units_of_measure = "%"
numeric_readout = -64

[[record]]
entry_smiles = "COc1cc(Cl)cc(-c2nn(-c3cccc(NC(=O)c4cc(C(F)(F)F)cc(C(F)(F)F)c4)c3)cc2-c2ccncc2)c1"
measure = "growth at 10 µM"
units_of_measure = "%"
numeric_readout = 88.7

[[record]]
entry_smiles = "O=C(Nc1cccc(-n2cc(-c3ccncc3)c(-c3cc(O)cc(Cl)c3)n2)c1)c1cc(C(F)(F)F)cc(C(F)(F)F)c1"
measure = "growth at 10 µM"
units_of_measure = "%"
numeric_readout = 38.7

[[record]]
entry_smiles = "COc1cc(Cl)cc(-c2nn(-c3cccc(NC(=O)Nc4ccc(Cl)c(C(F)(F)F)c4)c3)cc2-c2ccncc2)c1"
measure = "growth at 10 µM"
units_of_measure = "%"
numeric_readout = -48.3


Turning to the following molecule.
Output measured growth at 10 µM for this item: O=C(Nc1cccc(-n2cc(-c3ccncc3)c(-c3cc(O)cc(Cl)c3)n2)c1)Nc1ccc(Cl)c(Cl)c1
22.4

---

# Test system: BT-549
# experiment-description: Growth inhibition of human BT549 cells assessed as cell growth at 0.1 uM incubated for 48 hrs by sulforhodamine B assay relative to control
# Assay type: functional
# assay-setup: BT-549, 48 h, read-out: Activity
measure: growth at 0.1 µM
Answer format reminder: number followed by unit.

Worked examples follow.
[[record]]
entry_smiles = "O=C(Nc1cccc(-n2cc(-c3ccncc3)c(-c3cc(O)cc(Cl)c3)n2)c1)Nc1ccc(Cl)c(C(F)(F)F)c1"
result = "95%"

[[record]]
entry_smiles = "COc1cc(Cl)cc(-c2nn(-c3cccc(NC(=O)c4ccc(N5CCOCC5)c(C(F)(F)F)c4)c3)cc2-c2ccncc2)c1"
result = "100%"


Output measured growth at 0.1 µM for this item: COc1cc(Cl)cc(-c2nn(-c3cccc(NC(=O)Nc4ccc(Cl)c(C(F)(F)F)c4)c3)cc2-c2ccncc2)c1
99%

Output measured growth at 0.1 µM for this item: COc1cc(Cl)cc(-c2nn(-c3cccc(NC(=O)Nc4cccc(C(F)(F)F)c4)c3)cc2-c2ccncc2)c1
114%

---

# Test system: MDA-MB-468
# experiment-description: Growth inhibition of human MDA-MB-468 cells assessed as cell growth at 0.1 uM incubated for 48 hrs by sulforhodamine B assay relative to control
# Assay type: functional
# assay-setup: MDA-MB-468, 48 h, read-out: Activity
measure: growth at 0.1 µM (%)
Report the figure in % without appending any unit label.

Worked examples follow.
[[record]]
entry_smiles = "COc1cc(Cl)cc(-c2nn(-c3cccc(NC(=O)c4cccc(C(F)(F)F)c4)c3)cc2-c2ccncc2)c1"
numeric_readout = 85

[[record]]
entry_smiles = "COc1cc(Cl)cc(-c2nn(-c3cccc(NC(=O)c4ccc(N5CCOCC5)c(C(F)(F)F)c4)c3)cc2-c2ccncc2)c1"
numeric_readout = 92

[[record]]
entry_smiles = "O=C(Nc1cccc(-n2cc(-c3ccncc3)c(-c3cc(O)cc(Cl)c3)n2)c1)Nc1ccc(Cl)c(C(F)(F)F)c1"
numeric_readout = 94


Turning to the following compound.
Output measured growth at 0.1 µM for this item: O=C(Nc1cccc(-n2cc(-c3ccncc3)c(-c3cc(O)cc(Cl)c3)n2)c1)c1ccc(N2CCOCC2)c(C(F)(F)F)c1
54

---

# System: PC-3
# experiment-description: Growth inhibition of human PC3 cells assessed as cell growth at 10 uM incubated for 48 hrs by sulforhodamine B assay relative to control
# Type: functional
# assay-setup: PC-3, 48 h, read-out: Activity
measure: growth at 10 µM (%)
Report the figure in % without appending any unit label.

Worked examples follow.
[[record]]
entry_smiles = "COc1cc(Cl)cc(-c2nn(-c3cccc(NC(=O)Nc4cccc(C(F)(F)F)c4)c3)cc2-c2ccncc2)c1"
numeric_readout = -9.92

[[record]]
entry_smiles = "COc1cc(Cl)cc(-c2nn(-c3cccc(NC(=O)c4cccc(C(F)(F)F)c4)c3)cc2-c2ccncc2)c1"
numeric_readout = 23.1

[[record]]
entry_smiles = "COc1cc(Cl)cc(-c2nn(-c3cccc(NC(=O)Nc4cc(C(F)(F)F)cc(C(F)(F)F)c4)c3)cc2-c2ccncc2)c1"
numeric_readout = -6.27


Output measured growth at 10 µM for this item: COc1cc(Cl)cc(-c2nn(-c3cccc(NC(=O)Nc4ccc(Cl)c(C(F)(F)F)c4)c3)cc2-c2ccncc2)c1
-13

Output measured growth at 10 µM for this item: COc1cc(Cl)cc(-c2nn(-c3cccc(NC(=O)Nc4ccc(Cl)c(Cl)c4)c3)cc2-c2ccncc2)c1
-5.03

---

This listing pairs molecules with measured growth at 100 µM.
# Test system: OVCAR-3
# experiment-description: Growth inhibition of human OVCAR3 cells assessed as cell growth at 100 uM incubated for 48 hrs by sulforhodamine B assay relative to control
# Format: functional
# assay-setup: OVCAR-3, 48 h, read-out: Activity
Report the figure in % without appending any unit label.

Worked examples follow.
[[record]]
entry_smiles = "O=C(Nc1cccc(-n2cc(-c3ccncc3)c(-c3cc(O)cc(Cl)c3)n2)c1)c1ccc(N2CCOCC2)c(C(F)(F)F)c1"
measured_on = "OVCAR-3"
units_of_measure = "%"
numeric_readout = 30

[[record]]
entry_smiles = "O=C(Nc1cccc(-n2cc(-c3ccncc3)c(-c3cc(O)cc(Cl)c3)n2)c1)Nc1ccc(Cl)c(Cl)c1"
measured_on = "OVCAR-3"
units_of_measure = "%"
numeric_readout = -20

[[record]]
entry_smiles = "COc1cc(Cl)cc(-c2nn(-c3cccc(NC(=O)c4cccc(C(F)(F)F)c4)c3)cc2-c2ccncc2)c1"
measured_on = "OVCAR-3"
units_of_measure = "%"
numeric_readout = 38


Turning to the following molecule.
Output measured growth at 100 µM for this item: COc1cc(Cl)cc(-c2nn(-c3cccc(NC(=O)Nc4ccc(Cl)c(C(F)(F)F)c4)c3)cc2-c2ccncc2)c1
-56

---

This listing pairs compounds with measured GI50.
# Test system: NCI-H460
# experiment-description: Growth inhibition of human NCI-H460 cells incubated for 48 hrs by sulforhodamine B assay
# Type: functional, cell-based
# assay-setup: NCI-H460, 48 h, read-out: pGI50 (converted)
Report the figure in nM without appending any unit label.

Worked examples follow.
[[record]]
entry_smiles = "O=C(Nc1cccc(-n2cc(-c3ccncc3)c(-c3cc(O)cc(Cl)c3)n2)c1)c1cc(C(F)(F)F)cc(C(F)(F)F)c1"
measured_on = "NCI-H460"
numeric_readout = 3020

[[record]]
entry_smiles = "O=C(Nc1cccc(-n2cc(-c3ccncc3)c(-c3cc(O)cc(Cl)c3)n2)c1)Nc1ccc(Cl)c(Cl)c1"
measured_on = "NCI-H460"
numeric_readout = 2190

[[record]]
entry_smiles = "COc1cc(Cl)cc(-c2nn(-c3cccc(NC(=O)Nc4ccc(Cl)c(Cl)c4)c3)cc2-c2ccncc2)c1"
measured_on = "NCI-H460"
numeric_readout = 2290


Quote GI50 with test system NCI-H460 for COc1cc(Cl)cc(-c2nn(-c3cccc(NC(=O)c4ccc(N5CCOCC5)c(C(F)(F)F)c4)c3)cc2-c2ccncc2)c1
4790

---

# Test system: SK-MEL-2
# experiment-description: Growth inhibition of human SK-MEL-2 cells assessed as cell growth at 1 uM incubated for 48 hrs by sulforhodamine B assay relative to control
# Format: functional
# assay-setup: SK-MEL-2, 48 h, read-out: Activity
measure: growth at 1 µM (%)
Report the figure in % without appending any unit label.

[[record]]
entry_smiles = "COc1cc(Cl)cc(-c2nn(-c3cccc(NC(=O)Nc4cccc(C(F)(F)F)c4)c3)cc2-c2ccncc2)c1"
measured_on = "SK-MEL-2"
measure = "growth at 1 µM"
units_of_measure = "%"
numeric_readout = 85


Output measured growth at 1 µM for this item: COc1cc(Cl)cc(-c2nn(-c3cccc(NC(=O)Nc4cc(C(F)(F)F)cc(C(F)(F)F)c4)c3)cc2-c2ccncc2)c1
40

Output measured growth at 1 µM for this item: O=C(Nc1cccc(-n2cc(-c3ccncc3)c(-c3cc(O)cc(Cl)c3)n2)c1)Nc1ccc(Cl)c(Cl)c1
56

Output measured growth at 1 µM for this item: O=C(Nc1cccc(-n2cc(-c3ccncc3)c(-c3cc(O)cc(Cl)c3)n2)c1)Nc1ccc(Cl)c(C(F)(F)F)c1
104

Output measured growth at 1 µM for this item: COc1cc(Cl)cc(-c2nn(-c3cccc(NC(=O)c4ccc(N5CCOCC5)c(C(F)(F)F)c4)c3)cc2-c2ccncc2)c1
98
